meta.source: ChEMBL document CHEMBL5390235

target of assay: Protein AF-9 (Homo sapiens)
Sequence (P42568 whole entry, the tested form may be a part): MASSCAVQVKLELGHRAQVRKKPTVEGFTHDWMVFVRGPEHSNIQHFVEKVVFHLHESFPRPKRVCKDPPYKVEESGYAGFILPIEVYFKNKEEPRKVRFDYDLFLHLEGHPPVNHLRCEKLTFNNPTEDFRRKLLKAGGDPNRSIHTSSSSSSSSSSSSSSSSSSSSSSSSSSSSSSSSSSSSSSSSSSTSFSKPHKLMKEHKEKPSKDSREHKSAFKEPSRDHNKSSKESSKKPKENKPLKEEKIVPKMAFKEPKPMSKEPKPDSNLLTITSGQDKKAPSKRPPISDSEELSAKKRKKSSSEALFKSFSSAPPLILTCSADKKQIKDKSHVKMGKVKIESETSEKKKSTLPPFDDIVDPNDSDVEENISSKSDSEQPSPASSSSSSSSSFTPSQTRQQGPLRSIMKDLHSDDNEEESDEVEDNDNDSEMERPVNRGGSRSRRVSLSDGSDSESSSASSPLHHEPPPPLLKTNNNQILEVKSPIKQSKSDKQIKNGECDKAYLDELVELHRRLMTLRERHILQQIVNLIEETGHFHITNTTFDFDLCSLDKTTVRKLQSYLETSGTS
method: Binding affinity to N-terminal His-tagged recombinant human AF9 YEATS domain (1 to 138 residues) expressed in Escherichia coli 2(DE3)pLysS cells assessed as dissociation constant by ITC assay
measured parameter: Kd (µM)
Please state the figure in µM; there is no need to write the unit.

Need Kd of C/C=C/C(=O)NCCCC[C@H](NC(=O)[C@H](CCCNC(=N)N)NC(=O)[C@H](C)NC(=O)[C@@H](NC(=O)[C@H](CCC(N)=O)NC(=O)[C@H](CCCCN)NC(=O)[C@@H](N)[C@@H](C)O)[C@@H](C)O)C(=O)N[C@@H](CO)C(=O)N[C@H](C(=O)NCC(=O)NCC(=O)N[C@@H](CCCCN)C(=O)N[C@@H](C)C(=O)O)[C@@H](C)O , thanks.
7.8

Also, C/C=C(\C)C(=O)NCCCC[C@H](NC(=O)[C@H](CCCNC(=N)N)NC(=O)[C@H](C)NC(=O)[C@@H](NC(=O)[C@H](CCC(N)=O)NC(=O)[C@H](CCCCN)NC(=O)[C@@H](N)[C@@H](C)O)[C@@H](C)O)C(=O)N[C@@H](CO)C(=O)N[C@H](C(=O)NCC(=O)NCC(=O)N[C@@H](CCCCN)C(=O)N[C@@H](C)C(=O)O)[C@@H](C)O please.
46.5

Also, CC(C)=CC(=O)NCCCC[C@H](NC(=O)[C@H](CCCNC(=N)N)NC(=O)[C@H](C)NC(=O)[C@@H](NC(=O)[C@H](CCC(N)=O)NC(=O)[C@H](CCCCN)NC(=O)[C@@H](N)[C@@H](C)O)[C@@H](C)O)C(=O)N[C@@H](CO)C(=O)N[C@H](C(=O)NCC(=O)NCC(=O)N[C@@H](CCCCN)C(=O)N[C@@H](C)C(=O)O)[C@@H](C)O please.
159

Also, C[C@H](NC(=O)[C@H](CCCCN)NC(=O)CNC(=O)CNC(=O)[C@@H](NC(=O)[C@H](CO)NC(=O)[C@H](CCCCNC(=O)/C=C/C(F)(F)F)NC(=O)[C@H](CCCNC(=N)N)NC(=O)[C@H](C)NC(=O)[C@@H](NC(=O)[C@H](CCC(N)=O)NC(=O)[C@H](CCCCN)NC(=O)[C@@H](N)[C@@H](C)O)[C@@H](C)O)[C@@H](C)O)C(=O)O please.
48.5

Also, C=CC(=O)NCCCC[C@H](NC(=O)[C@H](CCCNC(=N)N)NC(=O)[C@H](C)NC(=O)[C@@H](NC(=O)[C@H](CCC(N)=O)NC(=O)[C@H](CCCCN)NC(=O)[C@@H](N)[C@@H](C)O)[C@@H](C)O)C(=O)N[C@@H](CO)C(=O)N[C@H](C(=O)NCC(=O)NCC(=O)N[C@@H](CCCCN)C(=O)N[C@@H](C)C(=O)O)[C@@H](C)O please.
13.7

---

target of assay: Protein AF-9 (Homo sapiens)
method: Binding affinity to N-terminal His-tagged recombinant human AF9 YEATS domain (1 to 138 residues) expressed in Escherichia coli 2(DE3)pLysS cells assessed as dissociation constant by ITC assay
Recorded Kd values for a group of compounds are listed next.
Please state the figure in µM; there is no need to write the unit.

The cases that follow already have their Kd on record.
Need Kd of CC/C=C/C(=O)NCCCC[C@H](NC(=O)[C@H](CCCNC(=N)N)NC(=O)[C@H](C)NC(=O)[C@@H](NC(=O)[C@H](CCC(N)=O)NC(=O)[C@H](CCCCN)NC(=O)[C@@H](N)[C@@H](C)O)[C@@H](C)O)C(=O)N[C@@H](CO)C(=O)N[C@H](C(=O)NCC(=O)NCC(=O)N[C@@H](CCCCN)C(=O)N[C@@H](C)C(=O)O)[C@@H](C)O , thanks.
13.6

Also, C[C@H](NC(=O)[C@H](CCCCN)NC(=O)CNC(=O)CNC(=O)[C@@H](NC(=O)[C@H](CO)NC(=O)[C@H](CCCCNC(=O)/C=C/c1ccccc1)NC(=O)[C@H](CCCNC(=N)N)NC(=O)[C@H](C)NC(=O)[C@@H](NC(=O)[C@H](CCC(N)=O)NC(=O)[C@H](CCCCN)NC(=O)[C@@H](N)[C@@H](C)O)[C@@H](C)O)[C@@H](C)O)C(=O)O please.
5.1

Further cases:
Need Kd of CC#CC(=O)NCCCC[C@H](NC(=O)[C@H](CCCNC(=N)N)NC(=O)[C@H](C)NC(=O)[C@@H](NC(=O)[C@H](CCC(N)=O)NC(=O)[C@H](CCCCN)NC(=O)[C@@H](N)[C@@H](C)O)[C@@H](C)O)C(=O)N[C@@H](CO)C(=O)N[C@H](C(=O)NCC(=O)NCC(=O)N[C@@H](CCCCN)C(=O)N[C@@H](C)C(=O)O)[C@@H](C)O , thanks.
20.5
